Fulfilled if MDR1-MDCK efflux ratio is below 2. Not fulfilled if not; exact matches included in Not fulfilled.

Ask: Would you kindly verify if MDR1-MDCK efflux ratio of COc1cccc2cc(C(N)=S)/c(=N/Nc3ccccc3)oc12 is strictly less than 2?
Reply: Fulfilled

Ask: Criterion: MDR1-MDCK efflux ratio strictly below 2. Is it met by Cc1oc(C)c(C(=O)Nc2ccn(C)n2)c1C ?
Reply: Fulfilled

Ask: Is MDR1-MDCK efflux ratio strictly under 2 for the entry COc1cccc(NC(=O)CNc2cccc(-c3ccnc(C)n3)c2)c1 ?
Reply: Not fulfilled

Ask: Field: below-cutoff. Rule: recorded MDR1-MDCK efflux ratio strictly less than 2. Subject: COc1ccc(F)c(CN2CCC(Cc3noc(C)n3)CC2)c1
Reply: Fulfilled

Ask: Decide: MDR1-MDCK efflux ratio of Cc1ccccc1OCCn1c(N)nc2ccccc21 strictly below 2?
Reply: Fulfilled

Ask: Given CN(C)c1ncn(-c2cccc(N)c2)n1 , is recorded MDR1-MDCK efflux ratio strictly lower than 2?
Reply: Fulfilled

Ask: Just wondering, is MDR1-MDCK efflux ratio of CSc1ccc(-c2ccc3n(c2=O)C[C@H]2C[C@@H]3CN(C(=O)c3ccncc3)C2)cc1 below 2?
Reply: Not fulfilled

----------
measured endpoint: fraction unbound, human plasma

CC#CC(=O)N1CC[C@@H](n2cc(-c3ccc(Oc4c(F)cccc4F)cc3)c3c(N)n[nH]c(=O)c32)C1 has a reported fraction unbound, human plasma of 0.00845

GET /value?item= Cc1cc(Nc2cnccn2)cc(C2CCCN(CC(=O)N3CCCC3)C2)n1 (stereo not drawn) &field=fraction unbound, human plasma returns 0.439

Notebook: Cc1nnc(-c2ccc(N3CCC(Oc4ccccc4C(F)(F)F)CC3)nn2)s1 , fraction unbound, human plasma read as 0.00124

Please fill in: fraction unbound, human plasma reported for O=C(CN1CCCC(c2cccc(Cc3cccc(F)c3)n2)C1)N1CCCC1 (stereo not drawn) = 0.115

Recorded result, Cc1ccc(OCC2(O)CCN(CC3(O)CCN(c4ccccc4C)CC3)CC2)cc1 , fraction unbound, human plasma: 0.00911

Reported fraction unbound, human plasma ( CC(C)(C)C(=O)N1CCC(Cc2ccc(-c3cccs3)cc2)(C(=O)N2CCCC2)CC1 ) = 0.00655

What the record says about CC(C)NC(=O)COc1cccc(-c2nc(Nc3ccc4[nH]ncc4c3)c3ccccc3n2)c1 : fraction unbound, human plasma is 0.00041

Looking up Cc1c(C(=O)NCCCN(C)C)sc2ncnc(Nc3ccc(F)cc3OC(C)C)c12 , I see its fraction unbound, human plasma listed as 0.0552

----------
measured endpoint: intrinsic clearance, human liver microsomes (mL/min/kg)
State just the number; it will be interpreted in mL/min/kg.

CCONC(=O)Cc1coc2c(C)c(C)ccc12 has a reported intrinsic clearance, human liver microsomes of 89.7

Consider N#Cc1ccc(-c2csc(CCN3CCCC3=O)n2)cc1 . Its measured intrinsic clearance, human liver microsomes is 5.81

Documented intrinsic clearance, human liver microsomes of Cc1ccccc1-n1cc[nH]c(=O)c1=O : 5.09

Sure, the documented intrinsic clearance, human liver microsomes for O=C(O)c1cc2cc(O)c(O)cc2c(C(=O)c2ccc(O)c(O)c2)n1 is 35.5

Memo: COc1ccc(OCc2n[nH]c(-c3n[nH]c4c3CCC4)n2)cc1 , reported intrinsic clearance, human liver microsomes: 50.9

// field: intrinsic clearance, human liver microsomes; key: CN(C)CC(C)(C)CNc1cn[nH]c(=O)c1Br ; value = 8.54

Input CN(Cc1cnc2ccccc2n1)S(=O)(=O)N1CCCCCC1 . Output intrinsic clearance, human liver microsomes: 230

Record summary for O=S(=O)(c1cccnc1)N1CCC2(Cc3ccccc3C2)C1 : reported intrinsic clearance, human liver microsomes = 91.2

Record COc1c(C)cnc(Cn2cc(C#CCC(C)(C)O)c3c(Cl)nc(N)nc32)c1C . Reported intrinsic clearance, human liver microsomes: 58.2

intrinsic clearance, human liver microsomes measured on CN(CCc1ccccn1)c1cnc2ccccc2n1 = 86.3

// sample Cc1nnc(NC(=O)c2ccccc2-c2ccc(C(F)(F)F)cc2)s1 , its intrinsic clearance, human liver microsomes was 12.1

response.value for CCN(CC)C(=O)Oc1cccc2cccnc12 (field: intrinsic clearance, human liver microsomes) = 20.6

Data point: Nc1ncc(-c2cccc(C(F)(F)F)c2)c(C2CCCCN2C(=O)c2ccccc2)n1 (stereo not drawn) ; intrinsic clearance, human liver microsomes = 380

Data point: COc1ccc(C(=O)C2CCN(CC(=O)N(Cc3nc4c(c(=O)[nH]3)COCC4)CC3CC3)CC2)cc1 ; intrinsic clearance, human liver microsomes = 10.9

compound COc1ccccc1CNc1n[nH]c2nc([C@H]3CCCN(CC(=O)N4CCCC4)C3)ccc12 , intrinsic clearance, human liver microsomes observed: 22.9

intrinsic clearance, human liver microsomes measured on CCN(C/C=C\c1ccc(C2CCCCC2)c(Cl)c1)C1CCCCC1 = 47.5

Per the records, this compound ( c1csc(-c2csc3nc(CN4CCOCC4)nc(N4CCc5[nH]ncc5C4)c23)c1 ) has intrinsic clearance, human liver microsomes equal to 559

# intrinsic clearance, human liver microsomes of Cc1nccc(-c2cccc(NCC(=O)N3CCCCCCC3)c2)n1 = 302

Lab note: measured intrinsic clearance, human liver microsomes of Cc1ccn(CCC(=O)N2CCc3nc4sccc4c(=O)n3CC2)n1 was 17

Entry CCN1C(=O)CC[C@H](C(=O)N2CCc3cc(F)cc(C)c3C2)[C@H]1c1ccncc1 ; intrinsic clearance, human liver microsomes = 185

Just so you know, measured intrinsic clearance, human liver microsomes for CCc1cc2c(cc1N1CCC(N3CCOCC3)CC1)C(C)(C)c1[nH]c3cc(C#N)ccc3c1C2=O came out at 35.8
